# credit: patent US20200223906A1

targetOrSystem: RSV F protein of subtype B (18537) on recombinant mKate-RSV virus (Respiratory syncytial virus subtype B …, UniProt P13843 26-574)
testName: cell-based or functional assay
I'd appreciate it if you could supply Neut IC50 (µg/ml) subtype B values for the items below.
Field format: number, assumed µg/mL, no unit text.

In: Reported Neut IC50 (µg/ml) subtype B, binder ADI-18960 (antibody, V domains shown, full-length IgG from yeast; also called Antibody Number 311; Ab # 311) VH: QVQLQESGPGLVKPSETLSLTCSVSGGSITNVNYYWGWIRQPPGKGLEWIGSIYYNGNTYYNPSLQSRVTMSVDTSKNHFSLRLTSVTAADTAVYFCAREGPNWELLNAFDIWGQGTTVTVSS VL: DIQVTQPPSVSVAPGQTARITCGGNNIGSKNVHWYQQKPGRAPVLVVYEDTHRPSGIPERFSGSNSGNTATLTISRVEAGDEADYYCQVWDTSSDHVVFGGGTKLTVL : ____
Out: 0.107

In: Reported Neut IC50 (µg/ml) subtype B, binder ADI-18877 (antibody, V domains shown, full-length IgG from yeast; also called Antibody Number 234; Ab # 234) VH: QVQLVQSGTEVKKPGASVKVSCKAAGYTFSNYGVSWVRQAPGQGLEWMGWISAYNGNTKFAQKVQGRLTMTTDTSTSTAYMELRNLRSDDTAVYYCARESGATAAAMFDYWGQGTLVTVSS VL: ETTLTQSPLSLPVTLGQPASISCRSSQSLEYSDGNIYLSWFQQRPGQSPRRLIYKVSHRDSGVPDRFSGSGSGTDFTLKIARVEAEDVAVYYCMQAIHWPRTFGQGTKVDIK : ____
Out: 0.13

In: Reported Neut IC50 (µg/ml) subtype B, binder ADI-18965 (antibody, V domains shown) VH: QVQLVQSGAEVKKPGASVKISCKASGYPFSSYPMHWVRQAPGQRLEWMGWINVDNENTKYSWKFRGRVTITRDTSASTVYMELSSLISEDTAVYYCGRDWDGAIRVLDYWGQGTLVTVSS VL: DIVMTQTPDSLAVSLGERATITCKSSQSVLFSSDNKNYLAWYQQKPGQPPKLLIYWASIRESGVPDRFGGSGSGTHFTLTITSVQAADVAVYYCQQYYGNFPTFGQGTRLEIK : ____
Out: 6.89
